targetDesc: Factor X (FX), P00742
Sequence (P00742 whole entry, looked up): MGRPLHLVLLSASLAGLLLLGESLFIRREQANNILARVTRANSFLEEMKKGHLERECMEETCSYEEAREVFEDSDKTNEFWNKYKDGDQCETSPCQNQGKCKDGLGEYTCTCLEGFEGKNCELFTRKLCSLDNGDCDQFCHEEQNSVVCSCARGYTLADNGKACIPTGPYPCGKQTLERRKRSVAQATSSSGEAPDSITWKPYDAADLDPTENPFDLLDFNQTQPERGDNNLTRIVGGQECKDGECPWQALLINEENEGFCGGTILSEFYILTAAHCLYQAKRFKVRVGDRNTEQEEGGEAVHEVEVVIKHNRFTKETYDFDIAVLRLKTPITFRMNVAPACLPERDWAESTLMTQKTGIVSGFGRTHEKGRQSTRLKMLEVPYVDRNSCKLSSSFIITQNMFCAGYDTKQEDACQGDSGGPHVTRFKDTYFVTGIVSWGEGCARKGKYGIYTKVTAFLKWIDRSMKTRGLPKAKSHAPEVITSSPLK
measuredEndpoint: kcat/KM (M⁻¹ s⁻¹)
Numbers only, in M⁻¹ s⁻¹.

Known kcat/KM results, listed for orientation:
1. FIXa variant K293E/R338E/R403E (protein) chain 1: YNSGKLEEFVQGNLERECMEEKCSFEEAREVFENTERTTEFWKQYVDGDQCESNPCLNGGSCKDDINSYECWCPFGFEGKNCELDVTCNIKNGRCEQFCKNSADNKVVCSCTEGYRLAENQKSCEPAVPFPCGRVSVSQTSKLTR chain 2: VVGGEDAKPGQFPWQVVLNGKVDAFCGGSIVNEKWIVTAAHCVETGVKITVVAGEHNIEETEHTEQKRNVIRIIPHHNYNAAINKYNHDIALLELDEPLVLNSYVTPICIADEEYTNIFLKFGSGYVSGWGRVFHKGRSALVLQYLRVPLVDRATCLESTKFTIYNNMFCAGFHEGGRDSCQGDSGGPHVTEVEGTSFLTGIISWGEECAMKGKYGIYTKVSEYVNWIKEKTKLT: 1.7e+07
2. FIXa-K293E/R338E/R403E (protein) chain 1: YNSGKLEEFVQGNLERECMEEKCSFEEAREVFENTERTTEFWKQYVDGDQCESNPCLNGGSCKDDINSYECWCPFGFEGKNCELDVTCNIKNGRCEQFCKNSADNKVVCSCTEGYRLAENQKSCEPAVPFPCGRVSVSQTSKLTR chain 2: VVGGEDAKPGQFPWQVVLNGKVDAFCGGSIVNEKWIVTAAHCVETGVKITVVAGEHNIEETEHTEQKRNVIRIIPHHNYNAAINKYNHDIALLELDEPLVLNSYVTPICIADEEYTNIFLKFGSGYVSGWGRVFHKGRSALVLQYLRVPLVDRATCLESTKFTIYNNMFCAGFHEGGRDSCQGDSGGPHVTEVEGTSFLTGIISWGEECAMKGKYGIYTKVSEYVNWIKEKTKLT: 1.7e+07
3. FIXa-Y155F/K247N/N249S/R318Y/R338E/E410N (protein) chain 1: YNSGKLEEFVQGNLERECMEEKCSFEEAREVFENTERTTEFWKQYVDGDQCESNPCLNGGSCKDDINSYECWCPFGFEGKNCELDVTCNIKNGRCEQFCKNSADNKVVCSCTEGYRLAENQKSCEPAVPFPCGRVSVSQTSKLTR chain 2: VVGGEDAKPGQFPWQVVLNGKVDAFCGGSIVNEKWIVTAAHCVETGVKITVVAGEHNIEETEHTEQNRSVIRIIPHHNYNAAINKYNHDIALLELDEPLVLNSYVTPICIADKEYTNIFLKFGSGYVSGWGRVFHKGYSALVLQYLRVPLVDRATCLESTKFTIYNNMFCAGFHEGGRDSCQGDSGGPHVTEVEGTSFLTGIISWGEECAMKGKYGIYTKVSRYVNWIKNKTKLT: 3.3e+08

--- query ---
Value lookup for kcat/KM; key = FIXa variant R318Y/R403E/E410N (protein) chain 1: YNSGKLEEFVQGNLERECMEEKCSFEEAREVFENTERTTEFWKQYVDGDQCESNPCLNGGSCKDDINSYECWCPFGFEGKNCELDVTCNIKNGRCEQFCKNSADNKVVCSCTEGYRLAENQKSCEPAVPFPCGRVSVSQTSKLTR chain 2: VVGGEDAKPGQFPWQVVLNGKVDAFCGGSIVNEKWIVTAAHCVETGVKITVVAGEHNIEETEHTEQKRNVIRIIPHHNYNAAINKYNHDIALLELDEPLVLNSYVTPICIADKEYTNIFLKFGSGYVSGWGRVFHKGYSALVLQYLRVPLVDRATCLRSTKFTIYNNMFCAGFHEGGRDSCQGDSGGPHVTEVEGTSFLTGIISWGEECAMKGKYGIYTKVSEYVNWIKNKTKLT 2.5e+07
